test system: P. aeruginosa (ATCC 27853); experiment: Enhancement of doxycycline activity; assay type: cell-based, Pseudomonas aeruginosa; conditions: ratio between intrinsic MIC of test compound and combination MIC; doxycycline 4.5 µM; P. aeruginosa
metric: Dox/P.a fold change (fold)
# value in fold; strip the unit string

Here are 5 compounds together with their reported answers.
O=C(NCCCNCCCCCCCCCCNCCCNC(=O)c1ccc2ccccc2c1)c1ccc2ccccc2c1.O=C(O)C(F)(F)F.O=C(O)C(F)(F)F [Compound 19e]	1
O=C(NCCCNCCCCCCCCNCCCNC(=O)c1ccc2ccccc2c1)c1ccc2ccccc2c1.O=C(O)C(F)(F)F.O=C(O)C(F)(F)F [Compound 19d]	8
O=C(NCCCNCCCCNCCCNC(=O)c1cccc2ccccc12)c1cccc2ccccc12.O=C(O)C(F)(F)F.O=C(O)C(F)(F)F [Compound 17a]	2.5
O=C(NCCCNCCCCCCNCCCNC(=O)c1cccc2ccccc12)c1cccc2ccccc12.O=C(O)C(F)(F)F.O=C(O)C(F)(F)F [Compound 17b]	16
O=C(NCCCNCCCCCCCCCCNCCCNC(=O)c1cccc2ccccc12)c1cccc2ccccc12.O=C(O)C(F)(F)F.O=C(O)C(F)(F)F [Compound 17e]	1

Consider the record given below.
Quickly give me recorded Dox/P.a fold change for O=C(CCC(=O)Nc1cccc2ccccc12)NCCCNCCCCNCCCNC(=O)CCC(=O)Nc1cccc2ccccc12.O=C(O)C(F)(F)F.O=C(O)C(F)(F)F [Compound 18a]
1
